assay: Half life in human liver microsomes; type: ADME
property-name: half-life (min)

# annotated cases, reported half-life shown
CCNC(=O)N[C@H]1CC[C@@H](Nc2ncc3ccc(=O)n(C(C)C)c3n2)CC1 16
CC(C)C(=O)N[C@H]1CC[C@H](Nc2ncc3ccc(=O)n(C(C)C)c3n2)CC1 44
CC(C)NC(=O)N[C@H]1CC[C@H](Nc2ncc3ccc(=O)n(C(C)C)c3n2)CC1 76
CCNC(=O)N[C@H]1CC[C@H](Nc2ncc3ccc(=O)n(C(C)C)c3n2)CC1 46

P = CC(C)NC(=O)N[C@H]1CC[C@H](Nc2ncc3ccc(=O)n(C4CCCC4)c3n2)CC1
Q = CCNC(=O)N1CCC(Nc2ncc3ccc(=O)n(C(C)C)c3n2)CC1
(Q) Would you mind telling me which has the lower recorded half-life between P and Q ? State the label of the item chosen.
(A) P
(P: 7 min, Q: 65 min)

====

assay: Half life in mouse liver microsomes; type: ADME
property-name: half-life (min)

CC(C)NC(=O)N[C@H]1CC[C@H](Nc2ncc3ccc(=O)n(C4CCCC4)c3n2)CC1 5
CC(C)NC(=O)N[C@H]1CC[C@H](Nc2ncc3ccc(=O)n(C(C)C)c3n2)CC1 22
CC(C)C(=O)N[C@H]1CC[C@H](Nc2ncc3ccc(=O)n(C(C)C)c3n2)CC1 19
CCNC(=O)N1CCC(Nc2ncc3ccc(=O)n(C(C)C)c3n2)CC1 14

A = CC(C)n1c(=O)ccc2cnc(N[C@H]3CC[C@H](O)CC3)nc21
B = CCNC(=O)N[C@H]1CC[C@@H](Nc2ncc3ccc(=O)n(C(C)C)c3n2)CC1
(Q) Input pair: A , B . Output: entry with lower half-life. Kindly give the label for the entry you pick.
(A) B
(B: 8 min, A: 23 min)

====

assay: Half life in mouse at 0.5 mg/kg, iv by LC-MS/MS analysis; type: ADME, organism-based; details: in vivo
property-name: half-life (min)

CCNC(=O)N1CCC(Nc2ncc3ccc(=O)n(C(C)C)c3n2)CC1 24

1 = CC(C)C(=O)N[C@H]1CC[C@H](Nc2ncc3ccc(=O)n(C(C)C)c3n2)CC1
2 = CCNC(=O)N[C@H]1CC[C@H](Nc2ncc3ccc(=O)n(C(C)C)c3n2)CC1
3 = CC(C)NC(=O)N[C@H]1CC[C@H](Nc2ncc3ccc(=O)n(C(C)C)c3n2)CC1
(Q) Order these by half-life, descending, and give the full ranking. Ranked list of labels, please, in the requested order.
(A) 3, 1, 2
(3: 66 min, 1: 30 min, 2: 18 min)

====

test: Cmax in mouse at 0.5 mg/kg, iv by LC-MS/MS analysis; assay type: ADME, organism-based; parameters: dose 0.5 mg/kg, route intravenous; conditions: in vivo
property-name: Cmax (nM)

CCNC(=O)N1CCC(Nc2ncc3ccc(=O)n(C(C)C)c3n2)CC1 1100
CC(C)NC(=O)N[C@H]1CC[C@H](Nc2ncc3ccc(=O)n(C(C)C)c3n2)CC1 900

P = CC(C)C(=O)N[C@H]1CC[C@H](Nc2ncc3ccc(=O)n(C(C)C)c3n2)CC1
Q = CCNC(=O)N[C@H]1CC[C@H](Nc2ncc3ccc(=O)n(C(C)C)c3n2)CC1
(Q) Which gives the smaller Cmax number: P or Q ? Give the chosen item's label as your response.
(A) Q
